Cited source: ChEMBL document CHEMBL3627611

Here the recorded pKi is given for each entry.
experimentalSystem: Carbonic anhydrase 2 (Homo sapiens, UniProt P00918)
experimentSummary: Inhibition of cytosolic carbonic anhydrase 2 esterase activity isolated from human erythrocytes using 4-nitrophenylacetate as substrate measured over 3 mins by spectrophotometric analysis
Please note pKi is a logarithmic value: minus log10 of concentration in mol/L. Answer with that number alone.

Examples from the recorded data:
Cc1ccc(S(=O)(=O)NCC(=O)N2CCCCC2)cc1 4.71
COC(=O)CNS(=O)(=O)c1ccc(C)cc1 4.25
Cc1ccc(S(=O)(=O)NCC(=O)O)cc1 3.84

Here is the next item to consider.
(Q) Enter pKi (test system Carbonic anhydrase 2 (Homo sapiens, UniProt P00918)) for `Cc1ccc(S(=O)(=O)N[C@@H](Cc2ccccc2)C(=O)O)cc1`
(A) 3.98

====

Each entry below carries its recorded Ki.
experimentalSystem: Carbonic anhydrase 1 (Homo sapiens)
Sequence (P00915 whole entry): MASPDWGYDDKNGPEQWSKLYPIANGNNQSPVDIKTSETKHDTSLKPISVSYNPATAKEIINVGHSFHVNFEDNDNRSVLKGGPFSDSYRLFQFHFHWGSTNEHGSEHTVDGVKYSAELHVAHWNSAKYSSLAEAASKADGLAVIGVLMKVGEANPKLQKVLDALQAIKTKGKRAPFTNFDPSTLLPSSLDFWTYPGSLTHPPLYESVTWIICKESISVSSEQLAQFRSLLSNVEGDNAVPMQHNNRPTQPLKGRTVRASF
experimentSummary: Inhibition of cytosolic carbonic anhydrase 1 esterase activity isolated from human erythrocytes using 4-nitrophenylacetate as substrate measured over 3 mins by spectrophotometric analysis
Provide only the numeric value, understood in µM.

Some solved cases for reference:
Cc1ccc(S(=O)(=O)N[C@@H](Cc2ccccc2)C(=O)N2CCCCC2)cc1 100
COC(=O)CNS(=O)(=O)c1ccc(C)cc1 106
Cc1ccc(S(=O)(=O)N[C@@H](Cc2ccccc2)C(=O)O)cc1 315

(Q) State its Ki for this compound: `Cc1ccc(S(=O)(=O)NCC(=O)OCc2ccccc2)cc1`
(A) 29.6

(Q) Supply Ki value. Item: `COC(=O)[C@H](Cc1ccccc1)NS(=O)(=O)c1ccc(C)cc1`
(A) 63.7

(Q) In one line, give reported Ki of the entry `Cc1ccc(S(=O)(=O)N[C@@H](Cc2ccccc2)C(=O)OCc2ccccc2)cc1` .
(A) 14.7

(Q) Tell me measured Ki for `Cc1ccc(S(=O)(=O)NCC(=O)O)cc1` please.
(A) 120
